target: F876L mutant Androgen Receptor (AR-F876L) (Homo sapiens (Human), UniProt P10275, F877L)
Sequence (P10275 whole entry F877L): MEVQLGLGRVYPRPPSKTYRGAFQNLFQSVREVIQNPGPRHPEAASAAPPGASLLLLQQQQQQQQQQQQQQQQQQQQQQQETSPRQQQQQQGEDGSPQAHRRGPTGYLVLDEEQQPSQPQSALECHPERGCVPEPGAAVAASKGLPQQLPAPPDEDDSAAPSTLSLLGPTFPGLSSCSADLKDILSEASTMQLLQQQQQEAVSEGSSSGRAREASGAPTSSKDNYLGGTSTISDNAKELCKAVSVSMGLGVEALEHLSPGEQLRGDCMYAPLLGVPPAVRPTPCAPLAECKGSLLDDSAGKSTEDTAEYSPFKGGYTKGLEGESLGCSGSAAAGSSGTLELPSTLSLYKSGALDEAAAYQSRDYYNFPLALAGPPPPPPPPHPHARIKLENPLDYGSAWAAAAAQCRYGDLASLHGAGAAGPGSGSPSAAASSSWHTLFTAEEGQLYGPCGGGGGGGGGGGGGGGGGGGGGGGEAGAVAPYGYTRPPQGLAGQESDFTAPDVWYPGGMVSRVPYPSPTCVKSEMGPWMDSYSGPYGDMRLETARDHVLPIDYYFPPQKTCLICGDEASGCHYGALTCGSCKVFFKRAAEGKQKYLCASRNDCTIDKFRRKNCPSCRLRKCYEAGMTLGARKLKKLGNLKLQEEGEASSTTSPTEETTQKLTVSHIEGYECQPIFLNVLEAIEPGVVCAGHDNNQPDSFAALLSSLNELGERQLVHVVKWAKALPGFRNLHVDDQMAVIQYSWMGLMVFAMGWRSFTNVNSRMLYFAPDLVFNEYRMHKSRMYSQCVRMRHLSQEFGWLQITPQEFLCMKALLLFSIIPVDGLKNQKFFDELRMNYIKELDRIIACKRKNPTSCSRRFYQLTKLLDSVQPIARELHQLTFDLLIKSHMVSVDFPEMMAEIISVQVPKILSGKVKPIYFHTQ
experiment: LNCaP-AR-F876L ANT reporter assay (antagonist mode)
Format: cell-based
appliedConditions: antagonist mode; maximum % inhibition of R1881 control response over tested concentration range; read-out: LNCaP-AR-F876L ANT MAX % Inh
Emax values, listed per item
Give your result in % as a bare value.

{"compound": "CC(=O)N1CCC(n2cc3ccc(N4C(=S)N(c5cnc(C#N)c(C(F)(F)F)c5)C(=O)C45CCC5)cc3n2)CC1 [Cpd 198]", "unitsOfMeasure": "%", "Emax": 102}
{"compound": "CN1CCOC(c2ccc(N3C(=S)N(c4cnc(C#N)c(C(F)(F)F)c4)C(=O)C34CCC4)cc2)C1 (stereo not shown) [Cpd 241]", "unitsOfMeasure": "%", "Emax": 103}
{"compound": "N#Cc1ncc(N2C(=O)C3(CCC3)N(c3ccc(CN4CCN(CCO)CC4)cc3)C2=S)cc1C(F)(F)F [Cpd 227]", "unitsOfMeasure": "%", "Emax": 100}
{"compound": "N#Cc1ncc(N2C(=O)C3(CCC3)N(c3ccc(CN4CCC(N)CC4)cc3)C2=S)cc1C(F)(F)F [Cpd 224]", "unitsOfMeasure": "%", "Emax": 100}
{"compound": "CN1CCC(c2nc3cc(N4C(=S)N(c5cnc(C#N)c(C(F)(F)F)c5)C(=O)C45CCC5)ccc3[nH]2)CC1 [Cpd 256]", "unitsOfMeasure": "%", "Emax": 96.8}

Prompt: Reported Emax for COc1cc(N2C(=O)C3(CCC3)N(c3ccc4c(cnn4C4CCN(C(C)=O)CC4)c3)C2=S)cnc1C#N [Cpd 212] : what is it?
Response: 96.1

Prompt: Requested read-out: Emax. Entry: N#Cc1ncc(N2C(=O)C3(CCC3)N(c3ccc(C(=O)NC[C@@H]4CCCNC4)cc3)C2=S)cc1C(F)(F)F [Cpd 186]
Response: 100
